# System Tested: Human TREM2 (Homo sapiens, UniProt Q9NZC2)
# Construct: expressed in transfected cells
# Sequence (Q9NZC2 19-230): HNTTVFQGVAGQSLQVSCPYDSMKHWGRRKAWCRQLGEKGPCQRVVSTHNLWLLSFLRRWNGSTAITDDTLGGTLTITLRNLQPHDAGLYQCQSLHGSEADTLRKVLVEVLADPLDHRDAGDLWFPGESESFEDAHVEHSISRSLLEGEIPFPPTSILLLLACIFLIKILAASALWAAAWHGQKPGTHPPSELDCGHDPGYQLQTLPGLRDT
# Sequence (O43914 22-113 partner): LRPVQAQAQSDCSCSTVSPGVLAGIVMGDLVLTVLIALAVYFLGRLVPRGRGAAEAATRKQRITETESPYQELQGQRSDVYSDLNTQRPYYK
# Protocol Summary: Human TREM2 activity: cellular phosphorylation of Syk (AlphaLISA SureFire Ultra p-SYK) in HEK293/DAP12+TREM2 stable cell line
# Format: cell-based
# Experimental Parameters: HEK293; maximal response relative to reference agonist example 1B (remaining examples); read-out: Emax
Listed here: items and their measured Emax.

Compound	System Tested	Emax
Cc1nc2c(-c3ccc(Cl)cc3F)nc(N3CCOC4(CCc5ccccc54)C3)nc2c(=O)n1C (stereo not drawn)	Human TREM2 (Homo sapiens, UniProt Q9NZC2)	< 75%

input: Suppose we examine the compound Cc1cc([C@@H]2CN(c3cc4c(=O)n(C)c(C(F)(F)F)nc4c(-c4ccc(F)cc4F)n3)C[C@H](C)O2)ccn1 (single isomer, unassigned) [Example 189A] ; what Emax value has been reported?
output: 75 to 110%

input: Suppose we examine the compound Cc1nc2c(-c3ccc(Cl)cc3F)nc([C@]34CCO[C@H](c5cnn(C6CC6)c5)[C@H]3C4)nc2c(=O)n1C (single isomer, unassigned) [Example 116A] ; what Emax value has been reported?
output: < 75%

input: Suppose we examine the compound Cc1nc2c(-c3cc(F)c(F)cc3F)nc(N3CCO[C@@H](c4cnn(C)c4)C3)nc2c(=O)n1C (single isomer, unassigned) [Example 27B] ; what Emax value has been reported?
output: 75 to 110%

input: Suppose we examine the compound Cc1nc2c(-c3ccc(Cl)cc3F)nc([C@H]3CCO[C@@H](c4cnn(C5CC5)c4)C3)nc2c(=O)n1C (racemic) [Example 14] ; what Emax value has been reported?
output: 75 to 110%

input: Suppose we examine the compound Cc1nc2c(-c3cc(F)c(F)cc3F)nc(N3C[C@@H](c4cnn(C)c4)OC4(CC4)C3)cc2c(=O)n1C (single isomer, unassigned) [Example 146A] ; what Emax value has been reported?
output: 75 to 110%

input: Suppose we examine the compound Cc1nnc(C2CN(c3nc(-c4ccc(Cl)cc4F)c4nc(C)n(C)c(=O)c4n3)CCO2)o1 (stereo not drawn) ; what Emax value has been reported?
output: < 75%

input: Suppose we examine the compound Cc1nc2c(-c3ccc(Cl)cc3F)nc(N3C[C@H](c4cnn(C)n4)OC(C)(C)C3)cc2c(=O)n1C (single isomer, unassigned) [Example 147B] ; what Emax value has been reported?
output: 75 to 110%

input: Suppose we examine the compound C[C@H]1CN(c2nc(-c3ccc(F)cc3F)c3nc(C(F)(F)F)n(C)c(=O)c3n2)C[C@@H](c2cnn(C3CC3)c2)O1 (single isomer, unassigned) [Example 183A] ; what Emax value has been reported?
output: 75 to 110%

input: Suppose we examine the compound COCCn1cc(C2CN(c3nc(-c4ccc(Cl)cc4F)c4nc(C)n(C)c(=O)c4n3)CCO2)cn1 (stereo not drawn) ; what Emax value has been reported?
output: < 75%

input: Suppose we examine the compound Cc1nc2c(-c3ccc(F)cc3F)nc(N3C[C@@H](c4cnn(C)c4)OC(C)(C)C3)nc2c(=O)n1C (single isomer, unassigned) [Example 121A] ; what Emax value has been reported?
output: < 75%

input: Suppose we examine the compound Cn1cc([C@@H]2CN(c3nc(-c4cc(F)c(F)cc4F)c4nc(C(F)(F)F)n(C)c(=O)c4n3)CC3(CC3)O2)cn1 (single isomer, unassigned) [Example 162A] ; what Emax value has been reported?
output: 75 to 110%
